Target: human mGlu5a receptor (Homo sapiens, UniProt P41594)
Construct: expressed in transfected cells
Sequence (P41594 21-1180 isoform P41594-2 limits assumed): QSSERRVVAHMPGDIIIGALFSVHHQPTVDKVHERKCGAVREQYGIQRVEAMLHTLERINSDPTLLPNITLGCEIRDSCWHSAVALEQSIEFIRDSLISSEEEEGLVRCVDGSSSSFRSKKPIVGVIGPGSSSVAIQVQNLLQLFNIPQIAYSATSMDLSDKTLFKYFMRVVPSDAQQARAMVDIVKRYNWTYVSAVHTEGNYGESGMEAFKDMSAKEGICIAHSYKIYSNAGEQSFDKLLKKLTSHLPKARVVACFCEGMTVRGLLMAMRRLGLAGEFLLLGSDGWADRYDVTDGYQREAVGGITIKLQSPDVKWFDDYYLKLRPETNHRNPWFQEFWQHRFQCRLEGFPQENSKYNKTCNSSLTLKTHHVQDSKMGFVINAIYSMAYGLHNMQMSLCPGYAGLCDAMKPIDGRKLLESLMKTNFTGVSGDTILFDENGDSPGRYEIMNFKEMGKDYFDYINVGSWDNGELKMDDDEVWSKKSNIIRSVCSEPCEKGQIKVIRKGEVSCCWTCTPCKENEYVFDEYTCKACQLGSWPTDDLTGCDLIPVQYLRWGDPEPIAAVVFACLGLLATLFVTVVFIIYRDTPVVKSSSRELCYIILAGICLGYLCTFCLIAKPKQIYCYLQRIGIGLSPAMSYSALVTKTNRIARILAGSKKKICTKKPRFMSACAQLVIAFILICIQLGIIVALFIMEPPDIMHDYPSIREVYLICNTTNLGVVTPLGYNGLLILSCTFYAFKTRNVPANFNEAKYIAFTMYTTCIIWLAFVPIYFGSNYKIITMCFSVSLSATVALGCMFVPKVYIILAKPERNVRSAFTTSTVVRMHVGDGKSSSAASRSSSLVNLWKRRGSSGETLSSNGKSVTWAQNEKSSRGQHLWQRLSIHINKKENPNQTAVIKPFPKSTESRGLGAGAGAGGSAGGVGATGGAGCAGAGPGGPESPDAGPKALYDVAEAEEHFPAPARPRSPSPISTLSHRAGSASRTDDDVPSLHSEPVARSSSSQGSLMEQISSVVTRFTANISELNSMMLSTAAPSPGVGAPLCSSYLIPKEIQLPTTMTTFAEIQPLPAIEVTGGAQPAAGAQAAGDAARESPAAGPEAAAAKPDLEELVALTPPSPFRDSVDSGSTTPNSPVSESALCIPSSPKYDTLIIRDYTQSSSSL
Assay: Intracellular Ca2+ mobilization assay (mGlu5 PAM)
Type: cell-based
Conditions: maximal response in % of the maximal stimulatory effect obtained with saturating concentrations of L-glutamate; read-out: Eff. (%)
Experimental Endpoint: Emax (%)

CC(C)(C)c1nc2ncc(C#Cc3ccc(F)c(F)c3)cn2n1
54
COc1cccc(C#Cc2cnc3cc(C(C)(C)C)nn3c2)c1
41
CC(C)(C)c1cc2ncc(C#Cc3ccc(N)nc3)cn2n1
98
CC(C)(C)c1cc2ncc(C#Cc3ccc(Cl)nc3)cn2n1
77
Cc1cc2ncc(C#Cc3ccc(Cl)cc3)cn2n1
69

1: CC(C)(C)c1cc2ncc(C#Cc3cncc(Cl)c3)cn2n1
2: CC(C)(C)c1nc2ncc(C#Cc3cccc(F)c3)cn2n1
Given the listed items, does 1 or 2 have the lesser reported Emax? Response format: the label of the selected entry.
1
(1: 59%, 2: 85%)

I: Cc1cc2ncc(C#Cc3ccc(F)cc3)cn2n1
II: C(#Cc1cnc2nc(N3CCCC3)nn2c1)c1ccccc1
Given the listed items, does I or II have the lesser reported Emax? Response format: the label of the selected entry.
I
(I: 74%, II: 141%)

P: COc1ccc(C#Cc2cnc3cc(C(C)(C)C)nn3c2)cc1
Q: C(#Cc1cnc2ncnn2c1)c1ccccc1
Given the listed items, does P or Q have the lesser reported Emax? Response format: the label of the selected entry.
P
